molecular target: HLA-A*11:01; test: IEDB peptide-MHC binding, purified MHC/competitive/radioactivity; filed as Kd, often an IC50 or EC50 that approximates it; bounds were set here for any values at or beyond the usual limits of such assays; details: source organism: Vaccinia virus WR
pKd: −log10 of the molar value.
Entry flag: fulfilled if pKd reaches 6; not fulfilled if it does not.

> print(dat)
   input.sequence   answer.label
1      SLTIKDSSNK  not fulfilled

Could you tell me if the measured pKd of EFLHYCNSY reaches 6 or more? not fulfilled

Could you tell me if the measured pKd of DVSMMSMYGK reaches 6 or more? fulfilled

Could you tell me if the measured pKd of SLNSMYTRLR reaches 6 or more? not fulfilled

Could you tell me if the measured pKd of TLISLNSMY reaches 6 or more? fulfilled

Could you tell me if the measured pKd of NARGEDTQMR reaches 6 or more? not fulfilled

Could you tell me if the measured pKd of MLEGETKLYK reaches 6 or more? fulfilled

---

target: HLA-A*30:02; experiment: IEDB peptide-MHC binding, purified MHC/competitive/radioactivity; filed as Kd, often an IC50 or EC50 that approximates it; bounds were set here for any values at or beyond the usual limits of such assays; settings: source organism: Mammarenavirus brazilense
reported_property: pKd
Answers are plain numbers, as −log10 of the molar value.

Kindly note: HLA-A*30:02, YNISRKIVY , pKd value reported: 5.47

---

biological target: HLA-B*44:02; assay: IEDB peptide-MHC binding, purified MHC/direct/fluorescence; filed as Kd, often an IC50 or EC50 that approximates it; bounds were set here for any values at or beyond the usual limits of such assays; conditions: source organism: Yellow fever virus 17D
reported_property: Kd

Looking up CRTAFKPVL , I see its Kd listed as ≥ 20 µM

---

target: HLA-A*68:01; assay: IEDB peptide-MHC binding, purified MHC/competitive/radioactivity; filed as Kd, often an IC50 or EC50 that approximates it; bounds were set here for any values at or beyond the usual limits of such assays; conditions: source organism: Dengue virus 1 Brazil/97-11/1997
reported_property: Kd (nM)
Give bare numbers, in nM.

Provide reported Kd for each item, in the same order as listed.
1. VMAFIAFLR
2. GVCGIRSATR
3. TTLSLDYAWK

1: 4.51; 2: 1880; 3: 13.9

---

target: HLA-A*01:01; assay: IEDB peptide-MHC binding, purified MHC/direct/fluorescence; filed as Kd, often an IC50 or EC50 that approximates it; bounds were set here for any values at or beyond the usual limits of such assays; details: source organism: Vibrio vulnificus
reported_property: Kd

Looking up QKDINTPGY , I see its Kd listed as ≥ 20 µM

---

molecular target: HLA-A*02:06; experiment: IEDB peptide-MHC binding, purified MHC/competitive/radioactivity; filed as Kd, often an IC50 or EC50 that approximates it; bounds were set here for any values at or beyond the usual limits of such assays; conditions: source organism: Lymphocytic choriomeningitis virus (strain Armstrong)
reported_property: Kd (nM)
Give bare numbers, in nM.

Looking up ALMDCIIFES , I see its Kd listed as 12.8

---

target: HLA-B*39:01; test: IEDB peptide-MHC binding, purified MHC/competitive/fluorescence; filed as Kd, often an IC50 or EC50 that approximates it; bounds were set here for any values at or beyond the usual limits of such assays; conditions: source organism: Escherichia coli str. K-12 substr. W3110
reported_property: Kd

Looking up IQFDWYPTS , I see its Kd listed as ≥ 20 µM

---

molecular target: HLA-A*30:02; assay: IEDB peptide-MHC binding, purified MHC/competitive/radioactivity; filed as Kd, often an IC50 or EC50 that approximates it; bounds were set here for any values at or beyond the usual limits of such assays; conditions: source organism: Mammarenavirus whitewaterense
pKd: −log10 of the molar value.
reported_property: pKd

Looking up LRIPTHRHI , I see its pKd listed as ≤ 4.11

---

target: HLA-A*02:02; experiment: IEDB peptide-MHC binding, purified MHC/competitive/radioactivity; filed as Kd, often an IC50 or EC50 that approximates it; bounds were set here for any values at or beyond the usual limits of such assays; details: source organism: Vaccinia virus WR
For each entry below, report its log10(Kd) value.
Please keep in mind that the values are log10 of Kd expressed in nM.

Worked examples follow.
> print(dat)
   input.sequence    tested.on  test.result
1       LLPLTSLVI  HLA-A*02:02         3.38
2      MLPESDLDKV  HLA-A*02:02         0.51
3      ELTTVFIKYV  HLA-A*02:02         3.45
4       MLLNVQTLI  HLA-A*02:02        -0.77
5       IAVFDSKLI  HLA-A*02:02         3.89

Provide reported log10(Kd) for each item, in the same order as listed.
1. KINEMVDEL
2. KIEDLINQLV

1: 0.15; 2: 1.94

Provide reported log10(Kd) for each item, in the same order as listed.
1. PASISSVLTI
2. DTMRIYCSL
3. EIMDKEQLL
4. KLLNMRDLI
5. NIPELKHGLL
6. ITHTNITTLL
7. KILSDENYLL
8. IMDKEQLLKI

1: 3.13; 2: 3.77; 3: 2.26; 4: 2.70; 5: 3.36; 6: 3.23; 7: 1.40; 8: 2.49

---

target: HLA-A*02:06; assay: IEDB peptide-MHC binding, purified MHC/competitive/radioactivity; filed as Kd, often an IC50 or EC50 that approximates it; bounds were set here for any values at or beyond the usual limits of such assays; details: source organism: Trypanosoma cruzi
For each entry below, report its Kd value.
Numbers only, in nM.

> print(dat)
   input.sequence  test.result
1      GLLPSLLLLL         7.28
2      LLGLWGFAAA         49.4

Provide reported Kd for each item, in the same order as listed.
1. LLGLWGLATA
2. LLGLWGIAAS
3. GLLPLLLLLL

57.9
9130
16.5

Looking up FVNYNFTLV , I see its Kd listed as 0.0031

---

For each entry below, report its Kd value.
biological target: HLA-A*02:01; experiment: IEDB peptide-MHC binding, purified MHC/competitive/fluorescence; filed as Kd, often an IC50 or EC50 that approximates it; bounds were set here for any values at or beyond the usual limits of such assays; conditions: source organism: Escherichia coli
One number for each entry, in µM.

Provide reported Kd for each item, in the same order as listed.
1. ELISSAFKV
2. HADDIPVPV

1. 0.0176
2. 0.0649

---

target: HLA-A*02:01; experiment: IEDB peptide-MHC binding, purified MHC/direct/fluorescence; filed as Kd, often an IC50 or EC50 that approximates it; bounds were set here for any values at or beyond the usual limits of such assays; details: source organism: Reston ebolavirus - Reston
For each entry below, report its Kd value.

> print(dat)
   input.sequence  test.result
1       KHDFIDNPL      ≥ 20 µM

Turning now to a further record.
Looking up FHRKKTDAL , I see its Kd listed as ≥ 20 µM

---

target: HLA-B*18:01; test: IEDB peptide-MHC binding, purified MHC/direct/fluorescence; filed as Kd, often an IC50 or EC50 that approximates it; bounds were set here for any values at or beyond the usual limits of such assays; conditions: source organism: Brucella suis 1330
reported_property: Kd

Looking up MHCDFAFWV , I see its Kd listed as ≥ 20 µM

---

biological target: HLA-B*15:42; assay: IEDB peptide-MHC binding, purified MHC/competitive/fluorescence; filed as Kd, often an IC50 or EC50 that approximates it; bounds were set here for any values at or beyond the usual limits of such assays; conditions: source organism: Mycobacterium tuberculosis H37Rv
pKd: −log10 of the molar value.
reported_property: pKd

Looking up FPRIGTAVF , I see its pKd listed as ≤ 5.30

---

target: HLA-A*24:02; assay: IEDB peptide-MHC binding, purified MHC/competitive/radioactivity; filed as Kd, often an IC50 or EC50 that approximates it; bounds were set here for any values at or beyond the usual limits of such assays; conditions: source organism: Dengue virus 1 Brazil/97-11/1997
reported_property: Kd (nM)
Numbers only, in nM.

Looking up VFKKRNLTI , I see its Kd listed as 882

---

target: HLA-A*31:01; assay: IEDB peptide-MHC binding, purified MHC/competitive/fluorescence; filed as Kd, often an IC50 or EC50 that approximates it; bounds were set here for any values at or beyond the usual limits of such assays; conditions: source organism: Zaire ebolavirus
pKd: −log10 of the molar value.
reported_property: pKd

Looking up FTFDLTALK , I see its pKd listed as ≤ 4.70

---

biological target: HLA-B*27:03; assay: IEDB peptide-MHC binding, purified MHC/direct/fluorescence; filed as Kd, often an IC50 or EC50 that approximates it; bounds were set here for any values at or beyond the usual limits of such assays; settings: source organism: Vibrio cholerae V52
pKd: −log10 of the molar value.
reported_property: pKd

Looking up LPYPVLLKI , I see its pKd listed as ≤ 4.70
